# METHOD: Salmonella/microsome assay, TA98
# MEASUREMENT PARAMETERS: Salmonella enterica serovar Typhimurium, S. typhimurium TA98 without S9 mix, pH 7.4
READOUT TYPE: CC50 at 30 min (µM)
Quick note: give the figure in µM, leave out the unit.

Quick one: CC50 at 30 min of CC(=O)Nc1ccc(Br)cc1C(F)(F)C(=O)NCC[C@@H]1C[C@H](CC(=O)OC(C)(C)C)OC(C)(C)O1 [Compound 13d] ?
1260

====

Give measured revertant His+ colonies TA97 for each item. Keep answers brief.
# Test system: Salmonella enterica serovar Typhimurium TA97
# METHOD: Salmonella/microsome assay, TA97
# MEASUREMENT PARAMETERS: −S9, 30 µM

Hi! What's the reported revertant His+ colonies TA97 for CC(=O)Nc1ccc(C)cc1C(F)(F)C(=O)NCC[C@@H]1C[C@H](CC(=O)OC(C)(C)C)OC(C)(C)O1 [Compound 13b] on Salmonella enterica serovar Typhimurium TA97?
75 ± 12

Can you handle CC(=O)Nc1ccccc1C(F)(F)C(=O)NCC[C@@H]1C[C@H](CC(=O)OC(C)(C)C)OC(C)(C)O1 [Compound 13a] next?
79 ± 8

Can you handle CC(=O)Nc1ccc(Cl)cc1C(F)(F)C(=O)NCC[C@@H]1C[C@H](CC(=O)OC(C)(C)C)OC(C)(C)O1 [Compound 13c] next?
84 ± 6

Can you handle CC(=O)Nc1ccc(Br)cc1C(F)(F)C(=O)NCC[C@@H]1C[C@H](CC(=O)OC(C)(C)C)OC(C)(C)O1 [Compound 13d] next?
135 ± 4

====

# Test system: Salmonella enterica serovar Typhimurium TA97
# METHOD: Salmonella/microsome assay, TA97
# MEASUREMENT PARAMETERS: +S9, 150 µM
Give measured revertant His+ colonies TA97 for each item. Keep answers brief.
No unit in the answer, only the number.

Quick one: revertant His+ colonies TA97 of CC(=O)Nc1ccc(Cl)cc1C(F)(F)C(=O)NCC[C@@H]1C[C@H](CC(=O)OC(C)(C)C)OC(C)(C)O1 [Compound 13c] ?
249

Can you handle CC(=O)Nc1ccccc1C(F)(F)C(=O)NCC[C@@H]1C[C@H](CC(=O)OC(C)(C)C)OC(C)(C)O1 [Compound 13a] next?
237

Can you handle CC(=O)Nc1ccc(Br)cc1C(F)(F)C(=O)NCC[C@@H]1C[C@H](CC(=O)OC(C)(C)C)OC(C)(C)O1 [Compound 13d] next?
203

Can you handle CC(=O)Nc1ccc(C)cc1C(F)(F)C(=O)NCC[C@@H]1C[C@H](CC(=O)OC(C)(C)C)OC(C)(C)O1 [Compound 13b] next?
231

====

# System: Salmonella enterica serovar Typhimurium TA98
# METHOD: Salmonella/microsome assay, TA98
# MEASUREMENT PARAMETERS: −S9, 150 µM
Give measured revertant His+ colonies TA98 for each item. Keep answers brief.
No unit in the answer, only the number.

Quick one: revertant His+ colonies TA98 of CC(=O)Nc1ccccc1C(F)(F)C(=O)NCC[C@@H]1C[C@H](CC(=O)OC(C)(C)C)OC(C)(C)O1 [Compound 13a] ?
32

Can you handle CC(=O)Nc1ccc(Cl)cc1C(F)(F)C(=O)NCC[C@@H]1C[C@H](CC(=O)OC(C)(C)C)OC(C)(C)O1 [Compound 13c] next?
21

Can you handle CC(=O)Nc1ccc(Br)cc1C(F)(F)C(=O)NCC[C@@H]1C[C@H](CC(=O)OC(C)(C)C)OC(C)(C)O1 [Compound 13d] next?
25

Can you handle CC(=O)Nc1ccc(C)cc1C(F)(F)C(=O)NCC[C@@H]1C[C@H](CC(=O)OC(C)(C)C)OC(C)(C)O1 [Compound 13b] next?
22

====

# Tested on: Salmonella enterica serovar Typhimurium TA97
# METHOD: Salmonella/microsome assay, TA97
# MEASUREMENT PARAMETERS: +S9, 30 µM
READOUT TYPE: revertant His+ colonies TA97

Hi! What's the reported revertant His+ colonies TA97 for CC(=O)Nc1ccccc1C(F)(F)C(=O)NCC[C@@H]1C[C@H](CC(=O)OC(C)(C)C)OC(C)(C)O1 [Compound 13a] on Salmonella enterica serovar Typhimurium TA97?
235 ± 23

Can you handle CC(=O)Nc1ccc(C)cc1C(F)(F)C(=O)NCC[C@@H]1C[C@H](CC(=O)OC(C)(C)C)OC(C)(C)O1 [Compound 13b] next?
216 ± 47

Can you handle CC(=O)Nc1ccc(Br)cc1C(F)(F)C(=O)NCC[C@@H]1C[C@H](CC(=O)OC(C)(C)C)OC(C)(C)O1 [Compound 13d] next?
201 ± 4

Can you handle CC(=O)Nc1ccc(Cl)cc1C(F)(F)C(=O)NCC[C@@H]1C[C@H](CC(=O)OC(C)(C)C)OC(C)(C)O1 [Compound 13c] next?
247 ± 14

====

# Test system: Salmonella enterica serovar Typhimurium TA98
# METHOD: Salmonella/microsome assay, TA98
# MEASUREMENT PARAMETERS: +S9, 1500 µM
Give measured revertant His+ colonies TA98 for each item. Keep answers brief.
No unit in the answer, only the number.

Quick one: revertant His+ colonies TA98 of CC(=O)Nc1ccc(Cl)cc1C(F)(F)C(=O)NCC[C@@H]1C[C@H](CC(=O)OC(C)(C)C)OC(C)(C)O1 [Compound 13c] ?
49

Can you handle CC(=O)Nc1ccccc1C(F)(F)C(=O)NCC[C@@H]1C[C@H](CC(=O)OC(C)(C)C)OC(C)(C)O1 [Compound 13a] next?
36

Can you handle CC(=O)Nc1ccc(C)cc1C(F)(F)C(=O)NCC[C@@H]1C[C@H](CC(=O)OC(C)(C)C)OC(C)(C)O1 [Compound 13b] next?
45

Can you handle CC(=O)Nc1ccc(Br)cc1C(F)(F)C(=O)NCC[C@@H]1C[C@H](CC(=O)OC(C)(C)C)OC(C)(C)O1 [Compound 13d] next?
35

====

Give measured revertant His+ colonies TA97 for each item. Keep answers brief.
# Test system: Salmonella enterica serovar Typhimurium TA97
# METHOD: Salmonella/microsome assay, TA97
# MEASUREMENT PARAMETERS: +S9, 15 µM
No unit in the answer, only the number.

Quick one: revertant His+ colonies TA97 of CC(=O)Nc1ccc(C)cc1C(F)(F)C(=O)NCC[C@@H]1C[C@H](CC(=O)OC(C)(C)C)OC(C)(C)O1 [Compound 13b] ?
183

Can you handle CC(=O)Nc1ccc(Cl)cc1C(F)(F)C(=O)NCC[C@@H]1C[C@H](CC(=O)OC(C)(C)C)OC(C)(C)O1 [Compound 13c] next?
245

Can you handle CC(=O)Nc1ccc(Br)cc1C(F)(F)C(=O)NCC[C@@H]1C[C@H](CC(=O)OC(C)(C)C)OC(C)(C)O1 [Compound 13d] next?
135

Can you handle CC(=O)Nc1ccccc1C(F)(F)C(=O)NCC[C@@H]1C[C@H](CC(=O)OC(C)(C)C)OC(C)(C)O1 [Compound 13a] next?
217

====

Give measured revertant His+ colonies TA104 for each item. Keep answers brief.
# Tested on: Salmonella enterica serovar Typhimurium TA104
# METHOD: Salmonella/microsome assay, TA104
# MEASUREMENT PARAMETERS: −S9, 3 µM
No unit in the answer, only the number.

Quick one: revertant His+ colonies TA104 of CC(=O)Nc1ccc(C)cc1C(F)(F)C(=O)NCC[C@@H]1C[C@H](CC(=O)OC(C)(C)C)OC(C)(C)O1 [Compound 13b] ?
210

Can you handle CC(=O)Nc1ccccc1C(F)(F)C(=O)NCC[C@@H]1C[C@H](CC(=O)OC(C)(C)C)OC(C)(C)O1 [Compound 13a] next?
264

Can you handle CC(=O)Nc1ccc(Cl)cc1C(F)(F)C(=O)NCC[C@@H]1C[C@H](CC(=O)OC(C)(C)C)OC(C)(C)O1 [Compound 13c] next?
195

Can you handle CC(=O)Nc1ccc(Br)cc1C(F)(F)C(=O)NCC[C@@H]1C[C@H](CC(=O)OC(C)(C)C)OC(C)(C)O1 [Compound 13d] next?
469

====

# System: Salmonella enterica serovar Typhimurium TA104
# METHOD: Salmonella/microsome assay, TA104
# MEASUREMENT PARAMETERS: +S9, 15 µM
# Method: Salmonella enterica serovar Typhimurium (S. typhimurium) strains TA97, TA98, TA100, TA104 and TA102 from the authors’ stock were used as described in the mutagenicity assay. To determine the cytotoxic effects, after 30 min pre-incubation, the assay mixtures were diluted in 0.9% NaCl (w/v) to obtain a suspension containing 2 × 10^2 cells/mL. […] The plates were then incubated at 37 °C for 24 h and the colonies counted. All the experiments were conducted in triplicate and were repeated at least twice. […]
READOUT TYPE: revertant His+ colonies TA104
No unit in the answer, only the number.

Hi! What's the reported revertant His+ colonies TA104 for CC(=O)Nc1ccc(Br)cc1C(F)(F)C(=O)NCC[C@@H]1C[C@H](CC(=O)OC(C)(C)C)OC(C)(C)O1 [Compound 13d] on Salmonella enterica serovar Typhimurium TA104?
513

Can you handle CC(=O)Nc1ccc(C)cc1C(F)(F)C(=O)NCC[C@@H]1C[C@H](CC(=O)OC(C)(C)C)OC(C)(C)O1 [Compound 13b] next?
356

Can you handle CC(=O)Nc1ccccc1C(F)(F)C(=O)NCC[C@@H]1C[C@H](CC(=O)OC(C)(C)C)OC(C)(C)O1 [Compound 13a] next?
417

Can you handle CC(=O)Nc1ccc(Cl)cc1C(F)(F)C(=O)NCC[C@@H]1C[C@H](CC(=O)OC(C)(C)C)OC(C)(C)O1 [Compound 13c] next?
401
